test: Organ distribution of ASK1 inhibitor in rats after oral administration; type: in vivo; details: male, Sprague-Dawley, heart / plasma, rat, single oral 300 mg/kg, read-out: Tissue-to-plasma ratio, Heart
Assay Readout: Kp at 1 h
API note: the answer field is a bare number with no unit suffix.

Q: Fill in the blank: the reported Kp at 1 h of O=C(c1ccc2c(c1)CN(c1cccc(-c3nncn3C3CC3)n1)C2=O)N1CCOCC1 is ____.
A: 1.13

---

assay: Organ distribution of ASK1 inhibitor in rats after oral administration; type: in vivo; conditions: male, Sprague-Dawley, liver / plasma, rat, single oral 300 mg/kg, read-out: Tissue-to-plasma ratio, Liver
Assay Readout: Kp at 1 h
Kindly provide the number alone.

Q: Quick one: Kp at 1 h of O=C(c1ccc2c(c1)CN(c1cccc(-c3nncn3C3CC3)n1)C2=O)N1CCOCC1 ?
A: 13.8

---

experiment: Organ distribution of ASK1 inhibitor in rats after intravenous administration; type: in vivo; settings: male, Sprague-Dawley, pancreas / plasma, rat, single IV 10 mg/kg, read-out: Tissue-to-plasma ratio, Pancreas
Assay Readout: Kp at 1 h
Enter a number only.

Q: Entry under review: O=C(c1ccc2c(c1)CN(c1cccc(-c3nncn3C3CC3)n1)C2=O)N1CCOCC1 . Reported Kp at 1 h?
A: 0.99

---

Test: Organ distribution of ASK1 inhibitor in rats after intravenous administration
Type: in vivo
Settings: male, Sprague-Dawley, skin / plasma, rat, single IV 10 mg/kg, read-out: Tissue-to-plasma ratio, Skin
Experimental: The objective of this study was to investigate organ (liver, heart, kidney, pancreas, spleen and skin) distribution of ASK1 inhibitor in male Sprague Dawley rats following a single intravenous (IV) administration at a dose of 10 mg/kg. […] Plasma, liver, heart, kidney, pancreas, spleen, and skin samples were quantified by fit-for-purpose LC-MS/MS method.
Assay Readout: Kp at 1 h

Q: For O=C(c1ccc2c(c1)CN(c1cccc(-c3nncn3C3CC3)n1)C2=O)N1CCOCC1 , what is its reported Kp at 1 h?
A: 0.46

---

experiment: Organ distribution of ASK1 inhibitor in rats after intravenous administration; assay type: in vivo; settings: male, Sprague-Dawley, kidney / plasma, rat, single IV 10 mg/kg, read-out: Tissue-to-plasma ratio, Kidney
Assay Readout: Kp at 1 h

Q: Which Kp at 1 h is listed for O=C(c1ccc2c(c1)CN(c1cccc(-c3nncn3C3CC3)n1)C2=O)N1CCOCC1 ?
A: 5.99

---

test: Organ distribution of ASK1 inhibitor in rats after oral administration; type: in vivo; details: male, Sprague-Dawley, kidney / plasma, rat, single oral 300 mg/kg, read-out: Tissue-to-plasma ratio, Kidney
Assay Readout: Kp at 1 h
Lab note: jot down the number only; don't add units.

Q: Recorded Kp at 1 h of O=C(c1ccc2c(c1)CN(c1cccc(-c3nncn3C3CC3)n1)C2=O)N1CCOCC1 , please.
A: 7.47

---

experiment: Organ distribution of ASK1 inhibitor in rats after intravenous administration; assay type: in vivo; conditions: male, Sprague-Dawley, heart / plasma, rat, single IV 10 mg/kg, read-out: Tissue-to-plasma ratio, Heart
Assay Readout: Kp at 1 h
Quick one: just the number, no unit, thanks!

Q: Recorded Kp at 1 h for O=C(c1ccc2c(c1)CN(c1cccc(-c3nncn3C3CC3)n1)C2=O)N1CCOCC1 , please?
A: 1.11
